# System: Enterobacter cloacae
# experiment notes: Antimicrobial activity against Enterobacter cloacae expressing beta-lactamase KPC-2 by Etest
# Type: functional
measured quantity: MIC

Prompt: What MIC value was documented for this molecule, NCC[C@H](O)C(=O)N[C@@H]1C[C@H](N)[C@@H](O[C@H]2O[C@H](CN)[C@@H](O)[C@H](O)[C@H]2O)[C@H](O)[C@H]1O[C@H]1O[C@H](CO)[C@@H](O)[C@H](N)[C@H]1O ?
Response: > 256 µg/mL

Prompt: What MIC value was documented for this molecule, C[C@@H](O)[C@H]1C(=O)N2C(C(=O)O)=C(S[C@@H]3CN[C@H](C(=O)Nc4cccc(C(=O)O)c4)C3)[C@H](C)[C@H]12 ?
Response: > 32 µg/mL

Prompt: What MIC value was documented for this molecule, CN(C)c1cc(NC(=O)CNC(C)(C)C)c(O)c2c1C[C@H]1C[C@H]3[C@H](N(C)C)C(O)=C(C(N)=O)C(=O)[C@@]3(O)C(O)=C1C2=O ?
Response: 2 µg/mL

Prompt: What MIC value was documented for this molecule, C[C@@H](O)[C@H]1C(=O)N2C(C(=O)O)=C(SCCNC=N)C[C@H]12 [IMIPENEM ANHYDROUS] ?
Response: > 32 µg/mL

Prompt: What MIC value was documented for this molecule, CO[C@@]1(NC(=O)Cc2cccs2)C(=O)N2C(C(=O)O)=C(COC(N)=O)CS[C@@H]21 ?
Response: > 256 µg/mL

###

# Test system: Klebsiella oxytoca
# experiment notes: Antimicrobial activity against Klebsiella oxytoca expressing beta-lactamase KPC-2 by Etest
# Assay type: functional
measured quantity: MIC

Prompt: What MIC value was documented for this compound, C[C@@H](O)[C@H]1C(=O)N2C(C(=O)O)=C(SCCNC=N)C[C@H]12 [IMIPENEM ANHYDROUS] ?
Response: > 32 µg/mL

Prompt: What MIC value was documented for this compound, CO[C@@]1(NC(=O)Cc2cccs2)C(=O)N2C(C(=O)O)=C(COC(N)=O)CS[C@@H]21 [CEFOXITIN] ?
Response: > 256 µg/mL

Prompt: What MIC value was documented for this compound, C[C@@H](O)[C@H]1C(=O)N2C(C(=O)O)=C(S[C@@H]3CN[C@H](C(=O)N(C)C)C3)[C@H](C)[C@H]12 [MEROPENEM] ?
Response: > 32 µg/mL

Prompt: What MIC value was documented for this compound, C[C@@H](O)[C@H]1C(=O)N2C(C(=O)O)=C(S[C@@H]3CN[C@H](C(=O)Nc4cccc(C(=O)O)c4)C3)[C@H](C)[C@H]12 ?
Response: > 16 µg/mL
